Origin of measurements: patent US7507739B2

Test system: HL-60/ADR cells
Assay: MTS cytotoxicity test with HL-60/ADR cells (MRP1)
Assay type: cell-based, human
Conditions: Homo sapiens, HL60/ADR, read-out: IC50 HL-60/ADR
Measurement type: IC50
Form entry: enter the amount, then its unit.

C[C@H](Nc1c(-c2c(F)cc(OCCCN(C)C)cc2F)c(Cl)nc2ncnn12)C(F)(F)F.Cl: 0.063 µM

// next entry
Consider the compound shown here: CNCCCOc1cc(F)c(-c2c(Cl)nc3ncnn3c2N[C@@H](C)C(F)(F)F)c(F)c1.Cl What is its recorded IC50?
0.047 µM

====

System: HeLa cells
Assay: Cell cycle analysis with HeLa cells
Format: cell-based, human
Details: 18 hr, 20 nM
Description: HeLa cells are harvested by trypsinization, washed, counted and distributed to wells of 12-well plates at 125,000 cells per well in 2 mL medium. Cells are cultured overnight. […] Cells are continued in culture for 18 hr after compound addition, then cells in each well are harvested (taking care to recover both adherent and non-adherent cells) and processed using the CycleTEST PLUS kit (Becton Dickinson Immunocytometry Systems, San Jose, Calif.). […]
Measurement type: Percent in Cell Cycle Phase >4N (%)
Quick reminder: number only, in %, skip the unit.

CC(=O)O[C@@]12CO[C@@H]1C[C@H](O)[C@@]1(C)C(=O)[C@H](O)C3=C(C)[C@@H](OC(=O)[C@H](O)[C@@H](NC(=O)OC(C)(C)C)c4ccccc4)C[C@@](O)([C@@H](OC(=O)c4ccccc4)[C@H]21)C3(C)C [Docetaxel, reference compound]: 3

// next entry
Consider the compound shown here: CC[C@]1(O)C[C@H]2CN(CCc3c([nH]c4ccccc34)[C@@](C(=O)OC)(c3cc4c(cc3OC)N(C=O)[C@H]3[C@@](O)(C(=O)OC)[C@H](OC(C)=O)[C@]5(CC)C=CCN6CC[C@]43[C@@H]65)C2)C1 [Vincristine, reference compound] What is its recorded Percent in Cell Cycle Phase >4N?
4

====

# Lookup of reported Percent in Cell Cycle Phase G2/M keyed by entry
System: HeLa cells
Assay: Cell cycle analysis with HeLa cells
Type: cell-based, human
Details: 18 hr, 80 nM
Quick reminder: number only, in %, skip the unit.

Here's what some known entries look like.
CNCCCOc1cc(F)c(-c2c(Cl)nc3ncnn3c2NCC(F)(F)F)c(F)c1.Cl [Example 3a]: 57
CNCCCOc1cc(F)c(-c2c(Cl)nc3ncnn3c2N[C@@H](C)C(F)(F)F)c(F)c1.Cl [Example 2a]: 52
CN(C)CCCOc1cc(F)c(-c2c(Cl)nc3ncnn3c2NCC(F)(F)F)c(F)c1.Cl [Example 4a]: 63

Consider the compound shown here: C[C@H](Nc1c(-c2c(F)cc(OCCCN(C)C)cc2F)c(Cl)nc2ncnn12)C(F)(F)F.Cl [Example 1a] What is its recorded Percent in Cell Cycle Phase G2/M?
58

====

# Lookup of reported Percent in Cell Cycle Phase >4N keyed by entry
Tested on: HeLa cells
Experiment: Cell cycle analysis with HeLa cells
Assay type: cell-based, human
Conditions: 18 hr, 80 nM
Quick reminder: number only, in %, skip the unit.

Here's what some known entries look like.
C[C@H](Nc1c(-c2c(F)cc(OCCCN(C)C)cc2F)c(Cl)nc2ncnn12)C(F)(F)F.Cl: 5
CNCCCOc1cc(F)c(-c2c(Cl)nc3ncnn3c2N[C@@H](C)C(F)(F)F)c(F)c1.Cl: 4
CN(C)CCCOc1cc(F)c(-c2c(Cl)nc3ncnn3c2NCC(F)(F)F)c(F)c1.Cl: 5

Consider the compound shown here: CNCCCOc1cc(F)c(-c2c(Cl)nc3ncnn3c2NCC(F)(F)F)c(F)c1.Cl What is its recorded Percent in Cell Cycle Phase >4N?
5
